test system: ER-alpha MCF7; experiment: ER-alpha MCF7 HCS EC50; stated as measured by in vitro cell proliferation assays of Examples 902 and 903; type: cell-based; conditions: Homo sapiens, MCF7, MCF7 cells; Table 2
reported_endpoint: EC50 (nM)

chemical_smiles	EC50, nM
C[C@@H]1Cc2c([nH]c3cc(F)c(F)cc23)[C@@H](c2c(F)cc(OC3CN(CCCF)C3)cc2F)N1CC(C)(C)F	0.7

(P) C[C@@H]1CCN([C@@H](C)COc2cc(F)c([C@@H]3c4[nH]c5ccccc5c4C[C@@H](C)N3CC(C)(C)F)c(F)c2)C1
(Q) C[C@@H]1Cc2c([nH]c3ccccc23)[C@@H](c2ccc(OCCN3CC(CF)C3)cc2F)N1C[C@](C)(F)CO
Input line: Identify the entry with the smaller EC50: P or Q . Write down the label of the entry you select.
Output line: Q

* * *

tested on: ER-alpha MCF7; assay: ER-alpha MCF7 HCS EC50; stated as measured by in vitro cell proliferation assays of Examples 902 and 903; format: cell-based; conditions: Homo sapiens, MCF7, MCF7 cells; Table 2
reported_endpoint: EC50 (nM)

Recorded results for 5 compounds are shown here.
chemical_smiles	measurement_unit	EC50
C[C@@H]1Cc2c([nH]c3ccccc23)[C@@H](c2ccc(OC3CN(CCCF)C3)cc2)N1CC(C)(C)F	nM	0.315
C[C@@H]1Cc2c([nH]c3cc(F)ccc23)[C@@H](c2c(F)cc(OCCN3CC(CF)C3)cc2F)N1CC(C)(C)F	nM	0.261
C[C@@H]1Cc2c([nH]c3ccccc23)[C@@H](c2c(F)cc(OC3CN(C(=O)OC(C)(C)C)C3)cc2F)N1CC(C)(C)F	nM	1
C[C@@H]1Cc2c([nH]c3ccccc23)[C@@H](c2c(F)cc(NCCN3CC(CF)C3)cc2F)N1CC(F)(F)F	nM	0.2
C[C@@H]1Cc2c([nH]c3ccc(F)cc23)[C@@H](c2c(F)cc(OCCN3CC(CF)C3)cc2F)N1CC(F)(F)CO	nM	0.552

(I) CC(C)CN1[C@H](c2c(F)cc(OCCN3CC(CF)C3)cc2F)c2[nH]c3ccccc3c2C[C@H]1C
(II) C[C@@H]1Cc2c([nH]c3ccccc23)[C@@H](c2c(F)cc(OCCN3CC(CF)C3)cc2F)N1C[C@@](C)(F)CO
Input line: Between I and II , whose recorded EC50 is greater? Write down the label of the entry you select.
Output line: I
(I: 1 nM, II: 0.0799 nM)

(a) C[C@@H]1Cc2c([nH]c3ccccc23)[C@@H](c2c(F)cc(OC3CN(CCCF)C3)cc2F)N1CC1(C)COC1
(b) CC(C)(F)CN1CCc2c([nH]c3ccccc23)[C@H]1c1c(F)cc(OCCN2CC(CF)C2)cc1F
Input line: Identify the entry with the smaller EC50: a or b . Write down the label of the entry you select.
Output line: b

* * *

test system: ER-alpha MCF7; experiment: ER-alpha MCF7 HCS EC50; stated as measured by in vitro cell proliferation assays of Examples 902 and 903; format: cell-based; conditions: Homo sapiens, MCF7, MCF7 cells; Table 2
reported_endpoint: EC50 (nM)

chemical_smiles	reported_endpoint	test_result
C[C@@H]1Cc2c([nH]c3ccccc23)[C@@H](c2c(F)cc(OCCN3CC(CF)C3)cc2F)N1C1CCC1	EC50	0.542
C[C@@H]1Cc2c([nH]c3ccccc23)[C@@H](c2c(F)cc(N(C)C3CN(CCCF)C3)cc2F)N1CC(C)(C)F	EC50	0.745
C[C@@H]1Cc2c([nH]c3ccccc23)[C@@H](c2cnc(OC3CN(CCCF)C3)cn2)N1CC(C)(C)F	EC50	0.619

Hello, the source for this data is patent US20250114338A1, in case you need it.
